Cited source for all entries: PubChem BioAssay (NCI)

System: OVCAR-4 ovarian
Assay: NCI-60 one-dose screen, 48 h
Conditions: 10 µM
Experimental: Growth inhibition of the OVCAR-4 human tumor cell line is measured as a screen for anti-cancer activity. Cells are grown in 96 well plates and exposed to the test compound for 48 hours. Compounds are tested at a single concentration, which is 10^-5 M for most compounds. The reported endpoint is percent growth (GI% or GIPRCNT), where numbers from 0 - 100% represent growth inhibition, and numbers from -100% - 0 represent cell death. For example, a value of 40 represents 60% growth inhibition. […]
This is part of a sample that, as a whole, favours compounds with a hit. Of some 83,000 tested, about 20% had one in any assay. Active and inactive are the calls of the source. Rule for the calls: active = growth percent below 10; inactive = the rest.
Classes to choose from: yes = active, no = inactive

Answered examples (2):
O=C(CSc1nnc(-c2cccnc2SCc2ccccc2)o1)Nc1nc(Cl)cc(Cl)n1 :: no
C#C[C@]1(O)CCC2C3CCc4cc(OC5CCCC5)ccc4C3CC[C@@]21C (stereo not given in full) :: no

Which outcome was entered for the compound COc1cc(-c2nn(-c3cccc(NC(=O)NCCNS(=O)(=O)c4ccc(Cl)cc4)c3)cc2-c2ccncc2)ccc1Cl in this test? no

Each compound tested received a call. Report the one for NS(=O)(=O)c1ccc(Br)cc1 . no
